# system-name: E. coli CsgA (Escherichia coli, UniProt P28307)
# Construct: made in house; host or cells: E. coli NEB 3016 slyD::kan, pET11d
# Sequence (P28307 23-151): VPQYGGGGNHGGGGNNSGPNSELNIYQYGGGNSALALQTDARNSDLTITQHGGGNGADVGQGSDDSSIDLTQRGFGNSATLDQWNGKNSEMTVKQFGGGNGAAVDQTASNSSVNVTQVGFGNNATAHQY
# experiment-notes: In vitro ThioflavinT assay of CsgA aggregation (CsgA ThT Assay)
# Format: biochemical
# particulars: read-out: CsgA ThT Assay (2 μM CsgA) % Control Bmax 100 μM, mean Bmax as percentage of DMSO control; CsgA 2 μM, white plates; compound 100 μM
Response field label: string, one of true (remaining activity at 100 µM strictly below 40%) or false.

Solved cases below.
compound	label-class
CCCOc1c(Cc2cccc3ccccc23)c(-c2cccc(C(F)(F)F)c2)c2n(c1=O)C(C(=O)O)CN(CCC)S2(=O)=O (stereo not shown)	false
O=C(O)C1CN(Cc2cccc3ccccc23)c2c(-c3cccc(C(F)(F)F)c3)c(Cc3cccc4ccccc34)c(Cl)c(=O)n21 (stereo not shown)	true
CCCN1CC(C(=O)O)n2c(c(-c3cccc(C(F)(F)F)c3)c(Cc3cccc4ccccc34)c(OCC)c2=O)S1(=O)=O (stereo not shown)	false
CN(C)Cc1c(Cc2cccc3ccccc23)c(-c2cccc(C(F)(F)F)c2)c2n(c1=O)C(C(=O)O)CN2Cc1ccccc1 (stereo not shown)	false
CC(C)(C)c1cccc(Cc2c(-c3cccc(C(F)(F)F)c3)c3n(c(=O)c2Cl)C(C(=O)O)CN3Cc2ccccc2)c1 (stereo not shown)	false
COc1cccc(CN2CC(C(=O)O)n3c2c(-c2cccc(C(F)(F)F)c2)c(Cc2cccc4ccccc24)c(Cl)c3=O)c1 (stereo not shown)	false

**Query** Hi there! Is remaining activity at 100 µM for NC(=O)c1c(Cc2cccc3ccccc23)c(-c2cccc(C(F)(F)F)c2)c2n(c1=O)C(C(=O)O)CN(C1CCCC1)S2(=O)=O (stereo not shown) below 40%, do you know?
**Result** true

**Query** Hi there! Is remaining activity at 100 µM for CCc1c(Cc2cccc3ccccc23)c(-c2cccc(C(F)(F)F)c2)c2n(c1=O)C(C(=O)O)CN2Cc1ccc(OC)cc1 (stereo not shown) below 40%, do you know?
**Result** true

**Query** Hi there! Is remaining activity at 100 µM for CCCN1CC(C(=O)O)n2c(c(-c3cccc(C(F)(F)F)c3)c(Cc3cccc4ccccc34)c(NC(=O)C(C)C)c2=O)S1(=O)=O (stereo not shown) below 40%, do you know?
**Result** false

**Query** Hi there! Is remaining activity at 100 µM for O=C(O)C1CNc2c(-c3cccc(C(F)(F)F)c3)c(Cc3cccc4ccccc34)c(Br)c(=O)n21 (stereo not shown) below 40%, do you know?
**Result** true

**Query** Hi there! Is remaining activity at 100 µM for CCCN1CC(C(=O)O)n2c(c(-c3cccc(C(F)(F)F)c3)c(Cc3cccc4ccccc34)c(CC(C)C)c2=O)S1(=O)=O (stereo not shown) below 40%, do you know?
**Result** true

**Query** Hi there! Is remaining activity at 100 µM for O=C(O)C1CN(Cc2ccccc2)c2c(-c3cccc(C(F)(F)F)c3)c(Cc3ccnc4ccccc34)c(Cl)c(=O)n21 (stereo not shown) below 40%, do you know?
**Result** false

###

# system-name: human α-synuclein (Homo sapiens)
# Construct: the full-length gene for untagged human α-synuclein was inserted; made in house; host or cells: E. coli BL21(DE3), plasmid derived from pT7 or pET11a
# experiment-notes: Cell-free Thioflavin T assay of α-synuclein aggregation (αSyn ThT Assay)
# Assay type: biochemical
# particulars: mean % inhibition of αSyn aggregation relative to DMSO control; αSyn 50 μM; compounds at 100 μM; read-out: αSyn ThT Assay % Inhibition
experimental-endpoint: inhibition at 100 µM (%)
Answer format: numeric, % implied, no suffix.

Sample records with inhibition at 100 µM:
compound	inhibition at 100 µM / %
CC(=O)Nc1ccc(Cc2cc(=O)n3c(c2-c2cccc(C(F)(F)F)c2)S(=O)(=O)N(C)CC3C(=O)O)c2ccccc12 (stereo not shown)	18
CNC(=O)C1CN(C)S(=O)(=O)c2c(-c3cccc(C(F)(F)F)c3)c(Cc3cccc4ccccc34)cc(=O)n21 (stereo not shown)	18
O=C(O)C1CSc2c(-c3cccc(C(F)(F)F)c3)c(Cc3cccc4ccccc34)c(CO)c(=O)n21 (stereo not shown)	54
O=C(O)C1CSc2c(-c3cccc(C(F)(F)F)c3)c(Cc3cccc4ccccc34)cc(=O)n21 (racemic) [Compound 011]	56
O=C(O)c1c(-c2ccccc2)sc2c(-c3cccc(C(F)(F)F)c3)c(Cc3cccc4ccccc34)cc(=O)n12	47

**Query** Field request: inhibition at 100 µM | item: CCCN1CC(C(=O)O)n2c(c(-c3cccc(C(F)(F)F)c3)c(Cc3cccc4ccccc34)cc2=O)S1(=O)=O (single isomer, unassigned) [Compound 016b]
**Result** 95
